Tested on: MCF7 breast
test-method-notes: NCI-60 one-dose screen, 48 h (100 = growth as untreated, 0 = no growth, -100 = all killed)
protocol-conditions: 10 µM unless noted
This is part of a sample that, as a whole, favours compounds with a hit. Of some 83,000 tested, about 20% had one in any assay. Active and inactive are the calls of the source. The calls were made as follows: active = growth percent below 10; inactive = the rest.
measurement-label: growth

Request: Answer with the recorded growth for the molecule listed here: O=C(Nc1cccc2c1C(=O)c1cccc(Nc3cccc4c3C(=O)c3cccc(NC(=O)c5ccccc5)c3C4=O)c1C2=O)c1ccccc1
Result: 107% (inactive)

Request: Identify growth associated with the molecule Cc1nn(-c2nc3ccccc3[nH]2)c2c1C(c1ccc3c(c1)OCO3)CC(=O)N2 (stereo not given)
Result: 17.4% (inactive)

Request: Please indicate growth recorded for O=C(O)c1cccnc1Br
Result: 96.8% (inactive)

Request: Let me know recorded growth for CCOC(=O)/C=C/c1ccc(C(=O)OCC)[nH]1 , thanks.
Result: 25.7% (inactive)

Request: Indicate its recorded growth; the molecule in question is COc1ccc(/C=N\NC(=O)c2ccncc2)cc1O
Result: 95.7% (inactive)

###

Tested on: ACHN renal
test-method-notes: NCI-60 one-dose screen, 48 h
protocol-conditions: 10 µM unless noted
About 83,000 compounds went through this panel and 20% of them were active in at least one assay; those are over-represented in the sample as a whole. Calls of active or inactive are those of the source. How the source made its calls: active means growth percent below 10; inactive means the rest.
Please answer using one outcome listed in Y (active), N (inactive)

Request: Please let me know the test result on file for CCCCCCCCCCCCS(=O)CC(C)O (centres undefined) .
Result: N

Request: How did this test come out for NCc1cn2cc(Cl)sc2n1 ?
Result: N

Request: Lab log entry: Nc1cc(-c2nc3sccn3c2-c2ccnc(NCCCNS(=O)(=O)c3ccc(F)cc3)n2)ccc1F — outcome as called in the assay?
Result: N

Request: Outcome logged for N#Cc1c(N)nc(N)nc1Nc1ccc(Br)cc1 in this assay:
Result: N

Request: // outcome(item) with item = CCC(=O)OCc1cccc(OC)c1
Result: N

Request: Hey, what did the test say about COc1ccc(/C=c2/c(=O)[nH]c3nc4sc(C)c(C)c4c(=O)n23)cc1 ?
Result: N

Request: Record lookup: outcome of this test for O=C(NCc1cccc(C(F)(F)F)c1)[C@H](CCC(=O)N1CCN(C2CCCCC2)CC1)N1C(=O)[C@@H](N2C(=O)OC[C@@H]2c2ccccc2)[C@H]1/C(Cl)=C/c1ccccc1 ?
Result: N

Request: Would you mind telling me which call this test gave CCOC(=O)C(C#N)C1CCCCC1 (centres undefined) ?
Result: N

Request: Per the assay record, what outcome was assigned to COc1ccc(-c2cnoc2-c2cc(OC)c3c(c2)OCCO3)cc1 ?
Result: N

Request: Test call for this molecule, please: CC/C(=C(\c1ccccc1)c1ccc(OCCNC)cc1)c1ccccc1
Result: Y

Request: How did this test come out for O=[N+]([O-])c1cccc(-c2nc3sccn3c2-c2ccnc(NCCCNS(=O)(=O)c3ccc(F)cc3)n2)c1 ?
Result: Y

Request: For O=C1CC(c2nc3ccccc3s2)CN1C1CCCCC1 (centres undefined) , what call appears in the results of this test?
Result: N

Request: Could you kindly confirm the outcome this assay logged for COc1ccc2[nH]c(=O)c(/C=C/C(=O)c3ccc(Nc4nccc(-c5ccc6ccccc6c5)n4)cc3)cc2c1 ?
Result: N

Request: What call does the record list for Cc1ccc(NC(=O)c2sc3nc4c(cc3c2N)C(=O)CCC4)cc1C ?
Result: N

Request: Write down the call the test reported for this molecule. Item: C/C=C/C(N)=O
Result: N

Request: Given CCOC(=O)CC(=O)c1c(C)cc(C)cc1C , state the outcome it received in this test.
Result: N

Request: In this assay, the call recorded for COC1=CC(=O)C(OC)=C(OC)C1=O was what?
Result: N

Request: Answer briefly: the call reported for CC#CC#Cc1cccc(=O)o1 in this assay.
Result: N

Request: What classification did COc1cc(NCCCCN=C(N)N)c2ncccc2c1 end up with in this test?
Result: N

Request: // param item: C=C1CC2(OC1=O)C(=O)Nc1ccccc12 (centres undefined) ; yields the recorded call
Result: Y

Request: // outcome(item) with item = O=C1/C(=C\c2cn(C(=O)c3ccc(Cl)cc3)c3ccccc23)c2ccccc2N1c1c(Cl)cccc1Cl
Result: N

Request: What classification did CC[C@H](Nc1nc(N)nc(C)c1C#N)c1nc2cccc(NCc3ccc(C(=O)NO)cc3)c2c(=O)n1-c1ccccc1 end up with in this test?
Result: Y

Request: Outcome logged for Cn1cc(-c2ccc(-c3cn(C)c4ncccc34)[nH]2)c2cccnc21 in this assay:
Result: Y

Request: Just curious, what result did OCC1C2C=CC(C2)C1CO (centres undefined) get here?
Result: N

###

System: OVCAR-3 ovarian
test-method-notes: NCI-60 one-dose screen, 48 h (100 = growth as untreated, 0 = no growth, -100 = all killed)
protocol-conditions: 10 µM unless noted
About 83,000 compounds went through this panel and 20% of them were active in at least one assay; those are over-represented in the sample as a whole.
Note: every record was labeled by where its growth sits among low: < 20%; middle: ≥ 20% and < 80%; high: ≥ 80%

Request: Category lookup for the molecule COc1ccc(OCC(=O)Nc2ccc(-c3nc4ccccc4s3)cc2C)cc1
Result: high

Request: Which class does Cc1cc(Cl)ccc1Nc1nc(C(F)(F)F)ccc1C(=O)N/N=C/c1ccc(F)cc1 fall in?
Result: low

Request: For this molecule, which bin applies? CCCCNP1(NCCCC)=NP(NCCCC)(NCCCC)=NP(NCCCC)(NCCCC)=NP(NCCCC)(NCCCC)=N1
Result: low

Request: Lab note: sort CC1=C(NCCN2CCCC2)C(=O)c2c(OCc3cccc(Cl)c3)cccc2C1=O into the matching growth band.
Result: high

Request: Which of the defined bands does the recorded growth of COc1ccc(C2c3ccc4ccccc4c3Oc3ncnc(N)c32)cc1 (stereo not given) sit within?
Result: high

Request: Which class does Cc1cc(Nc2nc(-c3cccnc3)nc3ccccc23)n[nH]1 fall in?
Result: middle

Request: Sort into band: O=C(O)c1ccc(=O)[nH]n1
Result: high

Request: Entry O=C1CCc2c(sc3[nH]c(=S)n(Cc4ccccc4)c(=O)c23)C1 belongs to which category?
Result: low

Request: Band assignment needed for COc1cc(C2CC(=O)Nc3c2cnn3Cc2ccco2)cc2c1OCCO2 (stereo not given) please.
Result: middle

Request: Class (by measured growth) for O=C1Nc2ccc(Br)cc2C12CC(c1ccccc1)=NN2 (stereo not given)
Result: middle

###

System: COLO 205 colon
test-method-notes: NCI-60 one-dose screen, 48 h (100 = growth as untreated, 0 = no growth, -100 = all killed)
protocol-conditions: 10 µM unless noted
About 83,000 compounds went through this panel and 20% of them were active in at least one assay; those are over-represented in the sample as a whole.
measurement-label: growth (%)
Give the value in % but do not write % after it.

Request: Return the recorded growth value; entry: O=C(O)c1cccc2c1-c1ccccc1C2=O
Result: 99.8

Request: Determine from records and report growth for COc1ccc(-c2cc(-c3ccc(N(C)C)cc3)nc(NC(=O)c3ccncc3)n2)cc1
Result: 111

Request: Name the recorded growth of the item CCCCCCCCCCCCCCCCNCCC[C@@H](C)[C@H]1CC[C@H]2[C@@H]3[C@H](OCCCN)C[C@@H]4C[C@H](OCCCN)CC[C@]4(C)[C@H]3C[C@H](OCCCN)[C@]12C in your answer.
Result: -40.8

Request: Please give the documented growth of O=c1c2c3c(sc2n2c(CCl)nnc2n1Cc1ccccc1)CCCC3
Result: -39.1

Request: Let me know recorded growth for CC(=O)C1=C(O)C=C2Oc3c(C(=O)/C=C/c4cc(C(F)(F)F)cc(C(F)(F)F)c4)c(O)c(C)c(O)c3[C@]2(C)C1=O , thanks.
Result: -66.6

###

Tested on: NCI-H460 lung
test-method-notes: NCI-60 one-dose screen, 48 h (100 = growth as untreated, 0 = no growth, -100 = all killed)
protocol-conditions: 10 µM unless noted
The panel holds about 83,000 compounds, 20% with a hit somewhere; the sample as a whole holds those more often.
measurement-label: growth (%)
Value expressed in %; do not type the unit.

Request: // fetch growth; item: O=C1c2cccnc2C(=O)c2c1c(C(=O)OCCN1CCOCC1)c1ccccn21 ; system: NCI-H460 lung
Result: -31.2

Request: Give reported growth for NC(N)=Nc1ccc(S(=O)(=O)O)cc1 (NCI-H460 lung)
Result: 109

Request: Report the value of growth obtained on NCI-H460 lung for COc1ccc(-c2c(C)noc2-c2ccc(O)cc2O)cc1 .
Result: 54.3

Request: Look up NCI-H460 lung data: growth of CN(C)CCCC(=O)Nc1ccc(Cn2nnc3c2C(=O)c2nnn(Cc4ccc(NC(=O)CCCN(C)C)cc4)c2C3=O)cc1 , then report it.
Result: 31

Request: Give growth for this entry on NCI-H460 lung: OCCNCCNc1c2ccccc2nc2ccccc12
Result: 54.6

Request: Provide measured growth on NCI-H460 lung for Nc1c(C(=O)Nc2ccccc2Cl)sc2nc3c(cc12)CCCCCC3 please.
Result: 30.8

Request: // fetch growth; item: COc1ccc(N(Cc2cc(OC)c(OC)c(OC)c2)C2OC(=O)c3ccccc32)cc1 (stereo not drawn) ; system: NCI-H460 lung
Result: 10.4

Request: Provide measured growth on NCI-H460 lung for O=C(Nc1cccc2c1C(=O)c1cccc(Nc3cccc4c3C(=O)c3cccc(NC(=O)c5ccccc5)c3C4=O)c1C2=O)c1ccccc1 please.
Result: 113
